// reported self-cleavage for each item listed
B1: OR4K15 (parent)
chain: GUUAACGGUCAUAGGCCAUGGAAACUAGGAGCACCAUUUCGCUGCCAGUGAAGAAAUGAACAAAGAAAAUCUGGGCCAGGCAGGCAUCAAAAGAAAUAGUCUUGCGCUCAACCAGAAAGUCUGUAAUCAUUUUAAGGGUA

variants of: B1; assay: self-cleavage, relative activity (ratio to wild type); higher = more cleavage; in vitro, sequencing; the parent is a self-cleaving ribozyme
A bare number is all that is needed in reply.

chain: GUUAACGGUAAUAGGCCAUGGAAACUAGGAGCACCAUUUCGCUGCCAGUGAAGAAAUGAACAAAGAAAAUCUGGGCCAGGCAGGCAUCAAAAGAAAUAGUCUUGCGCUCAACCAGAAGGUCUGUAAUCAUUUUAAGGGUA [C10A A118G]
recordedValue: 1.99
//
chain: GUUAACGGUCAUAGGCCAUGGAAACUAGGAGCACCAUUUCGCUGCCAGUGAAGAAAUGAACAAAGAAAAUCUGGGCCAGGCAGGCAUCAAAUGAAAUAGUCUUGCGCUCAACCAGAAAGUCUGUAAUCAUUUUAAGGGUA [A92U]
recordedValue: 1.71
//
chain: GUUAACGGUCAUAGGCCAUGGAGACUUGGAGCACCAUUUCGCUGCCAGUGAAGAAAUGAACAAAGAAAAUCUGGGCCAGGCAGGCAUCAAAAGAAAUAGUCUUGCGCUCAACCAGAAAGUCUGUAAUCAUUUUAAGGGUA [A23G A27U]
recordedValue: 1.29
//
chain: GUUAACGGUCAUAGGCCAUGGAAACUAGGAGCACCAUUUCGCUGCCAGUGAAGAAAUGAACAAAGAAAAUCUGGGCCAGGCAGGCGUCAAAAGAAAUAGUCUUGCGCUCGACCAGAAAGUCUGUAAUCAUUUUAAGGGUA [A86G A110G]
recordedValue: 0.16
//
chain: GUUAACGGUCAUAGGCCAUGGAAACUAGGAGCACCAUUUCGCUGCCAGUGAAGAAAUGAACAAAGAAAAUCUGGGCCAGGCAGGCAUCGGAAGAAAUAGUCUUGCGCUCAACCAGAAAGUCUGUAAUCAUUUUAAGGGUA [A89G A90G]
recordedValue: 0.71
//
chain: GUUAACGGUCAUAGGCCAUGGAAACUAGGAGCACCAUUUCGCUGCCAGUGAAGAAAUGAACAAAGAAAAUCUGGGCCAGGCAGGCAUCAAAAGAAACAGUCUUGCGCUCAACCAGAAAGUCAGUAAUCAUUUUAAGGGUA [U97C U122A]
recordedValue: 1.65
//
chain: GUUAACGGUCAUAGGCCAUGGAAACUAGGAGCACCAUUUCGCUGCCAGUGAAGAAGUGAACAAAGAAAAUCUGGGCCAGGCAGGCAUCAAAAGAAAUAGUCUUGCGCUCAACCAGAAAGGCUGUAAUCAUUUUAAGGGUA [A56G U120G]
recordedValue: 1.98
//
chain: GUUAACGGUCAUAGGCCAUGGAAACUAGGAGCACCAUUCCGCUGCCAGUGAAGAAAUGAACAAAGAAAAUCUGGGCCAGGCAGGCAUCAAAAGAAAUAGUCUUGCGCUCAACCAGUAAGUCUGUAAUCAUUUUAAGGGUA [U39C A116U]
recordedValue: 0.23

# query: self-cleavage of entry GUUAACGGUCGUAGGCCAUGGAAACUAGGAGCACCAUUUCGCUGCCAGUGAAGAAAUGGACAAAGAAAAUCUGGGCCAGGCAGGCAUCAAAAGAAAUAGUCUUGCGCUCAACCAGAAAGUCUGUAAUCAUUUUAAGGGUA [A11G A59G]
0.88

# query: self-cleavage of entry GUUAACGGUCAUAGGCCAUGGAAACUAGGAGCACCAUAUCGCUGCCAGUGAAGAAAUGAACAAAGAAAAUCUGGGCCUGGCAGGCAUCAAAAGAAAUAGUCUUGCGCUCAACCAGAAAGUCUGUAAUCAUUUUAAGGGUA [U38A A78U]
0.39

# query: self-cleavage of entry GUUAACGGUCAUAGGCCAUGGAAACUAGGAGCACCAUUUCGCUGCCAGUGAAGAAAUGAGCAAAGAAAAUCUGGGCCAGGCCGGCAUCAAAAGAAAUAGUCUUGCGCUCAACCAGAAAGUCUGUAAUCAUUUUAAGGGUA [A60G A82C]
0.08

Where these numbers come from: the RNAGym collection of RNA variant scans (doi:10.7554/elife.90254)
